Each item that follows carries a reported pKi.
- EXPERIMENTAL_TARGET: human GABAA α1β3γ2 receptor (Homo sapiens (Human), UniProt P14867+P18507)
- TEST_PROTOCOL: Radioligand binding assay for γ2-containing GABAA subtypes, [3H]Flumazenil competition (α1β3γ2)
Quick note: pKi values are minus log10 of concentrations in mol/L.

COMPOUND: C[C@@H]1N=C(c2c(F)cccc2F)c2c(ccc(Cl)c2Cl)-n2nc(OC3COC3)nc21
RECORDED_METRIC: pKi
EXPERIMENTAL_RESULT: 5.48
--
COMPOUND: C[C@@H]1N=C(c2c(F)cccc2F)c2c(ccc(Cl)c2Cl)-n2nc(C(=O)N3CC(CF)C3)nc21
RECORDED_METRIC: pKi
EXPERIMENTAL_RESULT: 6.14
--
COMPOUND: C[C@@H]1N=C(c2c(F)cccc2F)c2c(ccc(C(F)(F)F)c2Cl)-n2nc(NC(=O)N3C4COCC3C4)nc21 (single isomer, unassigned)
RECORDED_METRIC: pKi
EXPERIMENTAL_RESULT: 5.38
--
COMPOUND: [2H]C([2H])([2H])N(C(=O)c1nc2n(n1)-c1ccc(Cl)c(Cl)c1C(c1c(F)cccc1F)=N[C@H]2C)C([2H])([2H])[2H]
RECORDED_METRIC: pKi
EXPERIMENTAL_RESULT: 5.58
--
COMPOUND: COC1CN(C(=O)c2nc3n(n2)-c2ccc(Cl)c(Cl)c2C(c2ncccc2F)=N[C@H]3C)C1
RECORDED_METRIC: pKi
EXPERIMENTAL_RESULT: 5.66
--
COMPOUND: C[C@@H]1N=C(c2ncccc2F)c2c(ccc(C(F)(F)F)c2Cl)-n2nc(C(=O)N3CC4(CCOC4)C3)nc21
RECORDED_METRIC: pKi
EXPERIMENTAL_RESULT: 5.27

Next item in the queue.
pKi for "C[C@@H]1N=C(c2c(F)cccc2F)c2c(ccc(Cl)c2Cl)-n2cc(C(=O)N3CC(O)C3)nc21" is 6.50

----------
- EXPERIMENTAL_TARGET: human GABAA α1β3γ2 receptor (Homo sapiens (Human), UniProt P14867+P18507)
- TEST_PROTOCOL: Radioligand binding assay for γ2-containing GABAA subtypes, [3H]Flumazenil competition (α1β3γ2)
- Method: The affinity of compounds at GABAA γ2 subunit-containing receptors was measured by competition for [^3H]Flumazenil (81.1 Ci/mmol; Roche) binding to HEK293F cells expressing human (transiently transfected) receptors of composition α1β3γ2. Harvested pellets from HEK293F cells expressing the different GABAA γ2 receptor subtypes were resuspended in Mannitol Buffer pH 7.2-7.4 and processed as described above for the cells expressing the GABAA γ1 subunit-containing receptors. […]
Field 'label' (enum: T / F). Set to T when Ki is strictly under 700 nM; else F.

Check out these entries, answers already filled in.
COMPOUND: C[C@@H]1N=C(c2ncccc2F)c2c(ccc(C(F)(F)F)c2Cl)-n2nc(C(=O)N3CC(OC(F)F)C3)nc21 [Example 140]
CLASS_ASSIGNMENT: F
//
COMPOUND: O=C(c1nc2n(n1)-c1ccc(Cl)c(Cl)c1C(c1c(F)cccc1F)=NC2)N1CC(O)C1 [Example 24]
CLASS_ASSIGNMENT: T
//
COMPOUND: C[C@@H]1N=C(c2c(F)cccc2F)c2c(ccc(C(F)(F)F)c2Cl)-n2nc(C(=O)N3CC(C(F)F)C3)nc21 [Example 122]
CLASS_ASSIGNMENT: F
//
COMPOUND: C[C@@H]1N=C(c2c(F)cccc2F)c2c(ccc(Cl)c2Cl)-n2nc(C(F)F)nc21 [Example 18]
CLASS_ASSIGNMENT: T

Asked: Item C[C@@H]1N=C(c2ncccc2F)c2c(ccc(Cl)c2Cl)-n2nc(C(=O)N3CC4(COC4)C3)nc21 [Example 102] : Ki beneath 700 nM, strictly?
Given back: F

Asked: Regarding C[C@@H]1N=C(c2ncccc2F)c2c(ccc(C(F)(F)F)c2Cl)-n2nc(C(=O)N3CC[C@H](F)C3)nc21 [Example 123] , kindly confirm whether its Ki is beneath 700 nM.
Given back: F
